Where do these numbers come from? They come from ChEMBL document CHEMBL1157539.

Inhibition values by entry
- System: HepG2
- procedureText: GSK_TCMDC: Percent inhibition of human HepG2 cell line. Test compounds present at 10uM.
- Format: functional

{"compound": "CO/C(=C\\C=C\\c1cc2cc(Cl)c(Cl)cc2[nH]1)C(=O)NCC(C)(C)CN(C)C", "unitsText": "%", "Inhibition": 35}
{"compound": "CCCCCCn1c(Sc2ccc(C#N)c([N+](=O)[O-])c2)nnc1-c1cc(OC)cc(OC)c1", "unitsText": "%", "Inhibition": 35}
{"compound": "O=C(Nc1cccc(C2=NCCN2)c1)Nc1cccc(C2=NCCN2)c1", "unitsText": "%", "Inhibition": 16}
{"compound": "O=C(Nc1cccc(C(F)(F)F)c1)Nc1ccc(Cl)c(C(F)(F)F)c1", "unitsText": "%", "Inhibition": 0}
{"compound": "Cc1cccc2nc(-c3ccc(-c4cccc(NC(=O)Nc5ccccc5)c4)cc3)[nH]c12", "unitsText": "%", "Inhibition": 18}
{"compound": "COc1cc(Br)c(NC(=O)Nc2ccc(C(F)(F)F)c(O[C@@H]3CCN(C)C3)c2)cc1OC.Cl", "unitsText": "%", "Inhibition": 10}
{"compound": "Oc1ccc(C=NNC(S)=Nc2cccc3ccccc23)c(O)c1", "unitsText": "%", "Inhibition": 8}
{"compound": "COc1c(CNCCCCCCNCc2c(OC)c(OC)c3ccccc3c2OC)c(OC)c2ccccc2c1OC.CS(=O)(=O)O", "unitsText": "%", "Inhibition": 100}
{"compound": "N=C(N)c1ccc(C=Cc2ccc(C(=N)N)cc2O)cc1.O=S(=O)(O)CCO", "unitsText": "%", "Inhibition": 10}
{"compound": "Cc1[nH]c2ccccc2c1C(=O)C(C)Sc1nnc(-c2ccccc2Br)[nH]1 (stereo not given)", "unitsText": "%", "Inhibition": 0}
{"compound": "Cc1cc2nc(-c3ccc(SCC(=O)Nc4ccc5c(c4)OCCO5)nc3)[nH]c2cc1C", "unitsText": "%", "Inhibition": 17}
{"compound": "CN(C)Cc1cccc(-c2ccc(Nc3nccc(NCC(O)c4ccccc4)n3)cc2)c1 (stereo not given)", "unitsText": "%", "Inhibition": 75}
{"compound": "O=C(Nc1cccc(-c2nn3ccccc3c2-c2ccnc(Nc3ccc(NCCCN4CCOCC4)c(F)c3)n2)c1)c1c(F)cccc1F", "unitsText": "%", "Inhibition": 86}
{"compound": "Cc1ccc(O)c(C(=O)c2cnc3c(c2)c(-c2ccc(F)cc2)c(C#N)c(=O)n3C)c1", "unitsText": "%", "Inhibition": 17}
{"compound": "COc1ccc2c(ccc3c2ncc2c(=O)n(-c4ccccc4)[nH]c23)c1", "unitsText": "%", "Inhibition": 0}
{"compound": "NC(=O)C1CCN(Cc2ccc(-c3ccc(-c4nc5cc(C(F)(F)F)ccc5[nH]4)cc3)cc2)CC1.O=C(O)C(F)(F)F", "unitsText": "%", "Inhibition": 25}
{"compound": "O=C(NC1CCCCC1)N(Cc1cccc(-c2ccc(CNCc3ccc4c(c3)OCO4)cc2)c1)C1CCN(Cc2ccccc2)CC1.O=C(O)C(F)(F)F", "unitsText": "%", "Inhibition": 13}
{"compound": "O=C(Nc1ccc(S(=O)(=O)NCCCN2CCOCC2)cc1)c1cc(-c2ccccc2)[nH]n1", "unitsText": "%", "Inhibition": 16}
{"compound": "Oc1ccc(-c2ccccc2)cc1CN1CCCCCC1", "unitsText": "%", "Inhibition": 6}
{"compound": "O=C(Nc1cccc(C(F)(F)F)c1)Nc1ccc2nonc2c1", "unitsText": "%", "Inhibition": 0}
{"compound": "CNCc1cccc2nc(-c3csc(Cc4cc(Cl)ccc4OCC(C)C)n3)[nH]c12", "unitsText": "%", "Inhibition": 9}
{"compound": "COC(=O)C1(NC(=O)c2ccc(-n3nc(C)c(-c4ccccc4)c3N)cc2)CCCC1", "unitsText": "%", "Inhibition": 9}
{"compound": "CC(=O)c1ccc(S(=O)(=O)N2CCC(C(=O)Nc3ccccc3N3CCCC3)CC2)cc1", "unitsText": "%", "Inhibition": 0}
{"compound": "Clc1ncnc2scc(-c3ccc(Br)cc3)c12", "unitsText": "%", "Inhibition": 0}
{"compound": "Nc1nc2ccc(S(=O)(=O)Nc3ccc(C(=O)N[C@@H](CCC(=O)O)C(=O)O)c(F)c3)cc2c(=O)[nH]1", "unitsText": "%", "Inhibition": 37}
{"compound": "COc1ccc(O)c(C(=O)c2cnc3c(c2)c(-c2ccc(F)cc2)c(C#N)c(=O)n3C)c1", "unitsText": "%", "Inhibition": 7}
{"compound": "CCOC(=O)NOC(C(=O)O)c1ccccc1 (stereo not given)", "unitsText": "%", "Inhibition": 4}
{"compound": "Cc1ccc(N2C(N)=NC(N)=NC2(C)C)cc1.Cl", "unitsText": "%", "Inhibition": 43}
{"compound": "COc1ccc(CNC(=O)NC2CCN(c3ccnc(Nc4cc(OC)c(OC)c(OC)c4)n3)C2)cc1 (stereo not given)", "unitsText": "%", "Inhibition": 0}
{"compound": "Cc1noc(C)c1-c1cccc(CNCc2ccc(-c3cccc(-c4nc5cccc(C)c5[nH]4)c3)cc2)c1.O=C(O)C(F)(F)F", "unitsText": "%", "Inhibition": 24}
